MEASUREMENT_TARGET: hAT1R (Homo sapiens, UniProt P30556)
Sequence (P30556 whole entry): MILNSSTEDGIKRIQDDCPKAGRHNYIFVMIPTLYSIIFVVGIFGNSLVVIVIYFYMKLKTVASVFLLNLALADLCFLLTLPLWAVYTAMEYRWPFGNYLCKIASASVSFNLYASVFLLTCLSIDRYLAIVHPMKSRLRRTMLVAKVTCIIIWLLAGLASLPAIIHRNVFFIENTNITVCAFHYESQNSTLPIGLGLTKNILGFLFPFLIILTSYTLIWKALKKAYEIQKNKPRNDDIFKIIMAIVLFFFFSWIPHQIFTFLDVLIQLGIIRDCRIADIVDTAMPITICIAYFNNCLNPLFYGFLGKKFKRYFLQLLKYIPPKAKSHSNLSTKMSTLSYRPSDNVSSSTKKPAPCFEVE
EXPERIMENT_SUMMARY: cell-based
EXPERIMENTAL_SETUP: section of the 42nd table ending at r951, example numbering restarts after the DiscoveRx section; read-out: β-arrestin2 EC50
ASSAY_METRIC: EC50 (nM)
Reply with just the number (in nM).

Q: Need EC50 of CC1=NC2(CCOCC2)C(=O)N1Cc1ccc(-c2cc(-c3cc(C)ccn3)ccc2-c2nn[nH]n2)cc1 , thanks.
A: 80.4

Q: Need EC50 of CCOc1nc2cccc(C(=O)O)c2n1Cc1ccc(-c2cc(Oc3cnccc3C)ccc2-c2nn[nH]n2)cc1 , thanks.
A: 631

Q: Need EC50 of CCc1nc2c(C)cc(C)nc2n1Cc1ccc(-c2cc(Oc3ccccc3F)ccc2-c2nnn[nH]2)cc1 , thanks.
A: 21.3

Q: Need EC50 of CCc1nc2c(C)cc(C)nc2n1Cc1ccc(-c2cc(-n3cnc(C)c3)ccc2-c2nnn[nH]2)cc1 , thanks.
A: 159

Q: Need EC50 of CCCCC1=NC2(CCOCC2)C(=O)N1Cc1ccc(-c2cc(-c3ccccc3)ccc2-c2nnn[nH]2)cc1 , thanks.
A: 250

Q: Need EC50 of CCOc1nc2cccc(C(=O)O)c2n1Cc1ccc(-c2cc(Oc3ccc(F)cc3)ccc2-c2nn[nH]n2)cc1 , thanks.
A: 12.4

Q: Need EC50 of CCc1nc2c(C)cc(C)nc2n1Cc1ccc(-c2cc(Oc3cc(Cl)ccn3)ccc2-c2nn[nH]n2)cc1 , thanks.
A: 8.2

###

Hi there, I'd appreciate the recorded DiscoveRx β-arrestin2 Ymax (%) for every entry that follows.
MEASUREMENT_TARGET: AGTR1 (Homo sapiens, UniProt P30556)
Construct: host or cells: Pathunter CHO-K1 AGTR1 β-arrestin cell line (CHO-K1)
Sequence (P30556 whole entry): as above
EXPERIMENT_SUMMARY: DiscoveRx β-arrestin2 recruitment assay (enzyme complementation, Pathunter CHO-K1 AGTR1 β-arrestin cell line)
Type: cell-based
EXPERIMENTAL_SETUP: DiscoveRx β-arrestin2 recruitment, maximal response
Reply with just the number (in %).

Q: Need DiscoveRx β-arrestin2 Ymax (%) of CCC1=NC2(CCOC2)C(=O)N1Cc1ccc(-c2cc(-c3ccccc3)ccc2-c2nnn[nH]2)cc1 (single isomer, unassigned) , thanks.
A: 34.5

Q: Need DiscoveRx β-arrestin2 Ymax (%) of CCCCc1ncc(C(=O)N[C@@H](CC)C2CC2)n1Cc1ccc(-c2cc(-c3ccccc3)ccc2-c2nn[nH]n2)cc1 , thanks.
A: 30.9

Q: Need DiscoveRx β-arrestin2 Ymax (%) of CCCCC(=O)N(Cc1ccc(-c2cc(-c3ccc4ncccc4c3)ccc2-c2nn[nH]n2)cc1)C1(C(=O)O)CCCCC1 , thanks.
A: 32.1

Q: Need DiscoveRx β-arrestin2 Ymax (%) of CCCCC(=O)N(Cc1ccc(-c2cc(-c3ccccc3)ccc2-c2nn[nH]n2)cc1)[C@]1(C(=O)O)CC[C@H](O)CC1 , thanks.
A: 62.7

Q: Need DiscoveRx β-arrestin2 Ymax (%) of CCc1nc2c(C)cc(C)nc2n1Cc1ccc(-c2cc(-c3nccs3)ccc2-c2nn[nH]n2)cc1 , thanks.
A: 20.8

Q: Need DiscoveRx β-arrestin2 Ymax (%) of CCCCOC(=O)NS(=O)(=O)c1sc(-c2ccccc2)cc1-c1ccc(Cn2c(CC)nc3c(C)cc(C)nc32)cc1 , thanks.
A: 47.6

Q: Need DiscoveRx β-arrestin2 Ymax (%) of CCCCc1ncc(C(=O)NCCOC(C)C)n1Cc1ccc(-c2cc(-c3ccccc3)ccc2-c2nn[nH]n2)cc1 , thanks.
A: 35.9

Numbers sourced from patent US12037324B2.
